molecules and their reported inhibition
tested on: Platelet-derived growth factor receptor alpha (Homo sapiens), P16234 [T674I]; conditions: at 1 µM
Sequence (P16234 whole entry T674I): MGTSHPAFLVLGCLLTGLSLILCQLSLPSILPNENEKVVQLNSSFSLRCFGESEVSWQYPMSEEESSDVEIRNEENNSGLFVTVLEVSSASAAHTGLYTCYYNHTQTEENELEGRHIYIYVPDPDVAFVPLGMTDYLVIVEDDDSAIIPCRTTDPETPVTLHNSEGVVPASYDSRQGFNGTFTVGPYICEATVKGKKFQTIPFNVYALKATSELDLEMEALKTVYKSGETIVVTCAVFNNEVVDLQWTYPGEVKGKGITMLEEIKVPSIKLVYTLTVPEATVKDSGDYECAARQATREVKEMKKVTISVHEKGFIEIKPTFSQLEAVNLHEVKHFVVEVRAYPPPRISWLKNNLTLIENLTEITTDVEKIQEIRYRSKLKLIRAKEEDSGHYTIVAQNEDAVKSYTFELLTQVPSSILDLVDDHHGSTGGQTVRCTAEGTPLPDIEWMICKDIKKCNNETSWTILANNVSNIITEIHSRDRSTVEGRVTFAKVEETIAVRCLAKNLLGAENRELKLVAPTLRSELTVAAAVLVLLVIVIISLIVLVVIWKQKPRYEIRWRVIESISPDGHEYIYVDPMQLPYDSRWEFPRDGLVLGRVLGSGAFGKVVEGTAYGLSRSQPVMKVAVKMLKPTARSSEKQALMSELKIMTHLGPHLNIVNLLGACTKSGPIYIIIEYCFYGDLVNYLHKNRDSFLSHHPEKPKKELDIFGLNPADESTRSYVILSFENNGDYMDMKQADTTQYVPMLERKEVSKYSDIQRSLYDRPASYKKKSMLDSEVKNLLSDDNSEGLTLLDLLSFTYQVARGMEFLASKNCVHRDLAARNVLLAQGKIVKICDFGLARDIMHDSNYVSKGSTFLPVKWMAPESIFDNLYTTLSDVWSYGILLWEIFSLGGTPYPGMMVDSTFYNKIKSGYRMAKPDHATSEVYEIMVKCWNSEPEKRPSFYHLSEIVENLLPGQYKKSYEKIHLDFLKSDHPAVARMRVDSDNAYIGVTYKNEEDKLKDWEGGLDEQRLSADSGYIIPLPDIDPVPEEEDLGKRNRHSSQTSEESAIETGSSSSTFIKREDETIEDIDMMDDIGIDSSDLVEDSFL
Give the quantity in %, number only.

{"smiles record": "COc1cc2ncn(-c3cc(OCc4ccccc4C(F)(F)F)c(C(N)=O)s3)c2cc1OC", "unit text": "%", "value measured": 68}
{"smiles record": "Cc1nnc(-c2ccc(C)c(-c3ccc(C(=O)Nc4cccc(C#N)c4)cc3)c2)o1", "unit text": "%", "value measured": 6.79}
{"smiles record": "COc1cc2ncn(-c3cc(OCc4ccccc4Cl)c(C(N)=O)s3)c2cc1OC", "unit text": "%", "value measured": 69.7}

QUERY: Reported inhibition, molecule O=C(Nc1n[nH]c2nc(-c3ccco3)c(Br)cc12)C1CC1 : ____
RESULT: 6.07

QUERY: # lookup: inhibition of COC(=O)Nc1nc2cc(Oc3cccc(NC(=O)Nc4cc(C(F)(F)F)ccc4F)c3)ccc2[nH]1
RESULT: 37.5
